Where these numbers come from: paper PMC11467380

target: minimal U1 snRNP without U1-C (CoSMoS);U1-C zinc finger (U1-C_61) (human;human, UniProt P08621;P62316;P62318;P14678;P62306;P62304;P62308;P09234 …, internal_change|)
assayInfo: single-molecule CoSMoS
propertyName: Kd

Given the binder ACACAGGUAAGUUAACA (ssRNA) [9bp] , write its reported Kd.
~0.12 nM
